Test system: VSE775
test.summary: MIC, microdilution broth method
Type: cell-based, Enterococcus faecalis
Parameters: unit not given beside the values
condition: ESKAPE panel, Gram-positive
Listed molecules paired with reported MIC, VSE775
property.measured: MIC, VSE775

>  <molecule>
C[C@H]1COc2c(N3CC[C@H](Nc4cc(NC5CC5)ncn4)C3)c(F)cc3c(=O)c(C(=O)O)cn1c23

>  <quantitative.result>
4

$$$$
>  <molecule>
C[C@H]1COc2c(N3CCC(N4CCOCC4)C3)c(F)cc3c(=O)c(C(=O)O)cn1c23 (stereo partly shown)

>  <quantitative.result>
4

$$$$
>  <molecule>
C[C@H]1COc2c(N3CCC(N4CCN(C)CC4)C3)c(F)cc3c(=O)c(C(=O)O)cn1c23 (stereo partly shown)

>  <quantitative.result>
4

$$$$
>  <molecule>
C[C@H]1COc2c(N3CC[C@@H](Nc4ncccn4)C3)c(F)cc3c(=O)c(C(=O)O)cn1c23

>  <quantitative.result>
0.06

$$$$

* * *

Test system: VRE12201
test.summary: MIC, microdilution broth method
Format: cell-based, Enterococcus faecalis
condition: VRE12201; in µg/mL
Listed compounds paired with reported MIC
property.measured: MIC

>  <compound>
COCc1ccc(CN2CCN(c3cc4c(cc3F)c(=O)c(C(=O)O)cn4C3CC3)CC2)cc1

>  <quantitative.result>
1

$$$$
>  <compound>
C[C@H]1COc2c(N3CCC(Nc4ncccn4)C3)c(F)cc3c(=O)c(C(=O)O)cn1c23 (some centres unmarked)

>  <quantitative.result>
0.5

$$$$
>  <compound>
COC(=O)c1cnc(N2CCN(c3c(F)cc4c(=O)c(C(=O)O)cn5c4c3OC[C@@H]5C)CC2)nc1

>  <quantitative.result>
2

$$$$
>  <compound>
CCn1cc(C(=O)O)c(=O)c2cc(F)c(N3CCN(Cc4ccc(N(C)C)cc4)CC3)cc21

>  <quantitative.result>
2

$$$$
>  <compound>
C[C@H]1COc2c(N3CCN(c4ccncn4)CC3)c(F)cc3c(=O)c(C(=O)O)cn1c23

>  <quantitative.result>
0.25

$$$$
>  <compound>
CCn1cc(C(=O)O)c(=O)c2cc(F)c(N3CCN(Cc4ccc(COC)cc4)CC3)cc21

>  <quantitative.result>
8

$$$$
>  <compound>
CCn1cc(C(=O)O)c(=O)c2cc(F)c(N3CCN(Cc4ccc(-n5cncn5)cc4)CC3)cc21

>  <quantitative.result>
8

$$$$

* * *

Test system: MSSA9144
test.summary: MIC, microdilution broth method
Assay type: cell-based, Staphylococcus aureus
condition: ESKAPE panel, Gram-positive; in µg/mL
Where a name gives a salt, the structure may show the parent alone.
property.measured: MIC, MSSA9144

>  <compound>
C[C@H]1COc2c(N3CC[C@@H](N)C3)c(F)cc3c(=O)c(C(=O)O)cn1c23

>  <measured.target>
MSSA9144

>  <reported.relation>
=

>  <quantitative.result>
0.25

$$$$
>  <compound>
C[C@H]1COc2c(N3CC[C@@H](Nc4ncccn4)C3)c(F)cc3c(=O)c(C(=O)O)cn1c23

>  <measured.target>
MSSA9144

>  <reported.relation>
≤

>  <quantitative.result>
0.03

$$$$
>  <compound>
C[C@H]1COc2c(N3CC[C@@H](Nc4cnccn4)C3)c(F)cc3c(=O)c(C(=O)O)cn1c23

>  <measured.target>
MSSA9144

>  <reported.relation>
≤

>  <quantitative.result>
0.125

$$$$
>  <compound>
Cc1cc(N2CCN(c3c(F)cc4c(=O)c(C(=O)O)cn5c4c3OC[C@@H]5C)CC2)nc(C(C)C)n1 [ML-83-012, hydrochloride]

>  <measured.target>
MSSA9144

>  <reported.relation>
=

>  <quantitative.result>
0.25

$$$$
>  <compound>
Cc1cc(C)nc(N[C@@H]2CCN(c3c(F)cc4c(=O)c(C(=O)O)cn5c4c3OC[C@@H]5C)C2)n1

>  <measured.target>
MSSA9144

>  <reported.relation>
≤

>  <quantitative.result>
0.0039

$$$$

* * *

Listed molecules paired with reported MIC, EMRSA15
Test system: EMRSA15
test.summary: MIC, microdilution broth method
Assay type: cell-based, Staphylococcus aureus
condition: ESKAPE panel, Gram-positive; in µg/mL
property.measured: MIC, EMRSA15

>  <molecule>
C[C@H]1COc2c(N3CC[C@H](Nc4ncccn4)C3)c(F)cc3c(=O)c(C(=O)O)cn1c23

>  <property.measured>
MIC, EMRSA15

>  <quantitative.result>
8

$$$$
>  <molecule>
Cc1cc(N2CCN(c3c(F)cc4c(=O)c(C(=O)O)cn5c4c3OC[C@@H]5C)CC2)nc(C(C)C)n1

>  <property.measured>
MIC, EMRSA15

>  <quantitative.result>
16

$$$$
>  <molecule>
C[C@H]1COc2c(N3CCC(N4CCN(C)CC4)C3)c(F)cc3c(=O)c(C(=O)O)cn1c23 (stereo partly drawn)

>  <property.measured>
MIC, EMRSA15

>  <quantitative.result>
64

$$$$
>  <molecule>
C[C@H]1COc2c(N3CC[C@@H](Nc4cnccn4)C3)c(F)cc3c(=O)c(C(=O)O)cn1c23

>  <property.measured>
MIC, EMRSA15

>  <quantitative.result>
1

$$$$
>  <molecule>
C[C@H]1COc2c(N3CCN(c4ncc(F)cn4)CC3)c(F)cc3c(=O)c(C(=O)O)cn1c23

>  <property.measured>
MIC, EMRSA15

>  <quantitative.result>
2

$$$$
>  <molecule>
C[C@H]1COc2c(N3CC[C@H](Nc4ncc(N)cn4)C3)c(F)cc3c(=O)c(C(=O)O)cn1c23

>  <property.measured>
MIC, EMRSA15

>  <quantitative.result>
1

$$$$
>  <molecule>
C[C@H]1COc2c(N3CC[C@@H](Nc4ncccn4)C3)c(F)cc3c(=O)c(C(=O)O)cn1c23

>  <property.measured>
MIC, EMRSA15

>  <quantitative.result>
0.5

$$$$
>  <molecule>
C[C@H]1COc2c(N3CC[C@@H](Nc4ncc(F)cn4)C3)c(F)cc3c(=O)c(C(=O)O)cn1c23

>  <property.measured>
MIC, EMRSA15

>  <quantitative.result>
0.5

$$$$
>  <molecule>
C[C@H]1COc2c(N3CCC(N4CCOCC4)C3)c(F)cc3c(=O)c(C(=O)O)cn1c23 (stereo partly drawn)

>  <property.measured>
MIC, EMRSA15

>  <quantitative.result>
16

$$$$

* * *

Test system: VSE775
test.summary: MIC, microdilution broth method
Type: cell-based, Enterococcus faecalis
condition: VSE775; in µg/mL
API: label(entry) gives met if the entry's MIC is strictly smaller than 4; on equality or larger values it gives not met.

>  <molecular.string>
CCn1cc(C(=O)O)c(=O)c2cc(F)c(N3CCN(Cc4cccc5ccccc45)CC3)nc21

>  <assigned.class>
not met

$$$$
>  <molecular.string>
CCn1cc(C(=O)O)c(=O)c2cc(F)c(N3CCN(Cc4ccc(-n5cccn5)cc4)CC3)cc21

>  <assigned.class>
not met

$$$$
>  <molecular.string>
CCn1cc(C(=O)O)c(=O)c2cc(F)c(N3CCN(c4cccc5ccccc45)CC3)cc21

>  <assigned.class>
met

$$$$
>  <molecular.string>
C[C@H]1COc2c(N3CCN(c4ccncn4)CC3)c(F)cc3c(=O)c(C(=O)O)cn1c23

>  <assigned.class>
met

$$$$

* * *

Test system: VSE775
test.summary: MIC, microdilution broth method
Type: cell-based, Enterococcus faecalis
condition: VSE775; in µg/mL
property.measured: MIC

>  <molecular.string>
CCn1cc(C(=O)O)c(=O)c2cc(F)c(N3CCN(Cc4cccc5c4OCO5)CC3)cc21

>  <result>
8

$$$$
>  <molecular.string>
CCn1cc(C(=O)O)c(=O)c2cc(F)c(N3CCN(Cc4ccc(N(C)C)cc4)CC3)cc21

>  <result>
4-8

$$$$
>  <molecular.string>
O=C(O)c1cn(C2CC2)c2cc(N3CCN(Cc4ccc5ccccc5c4)CC3)c(F)cc2c1=O

>  <result>
0.5-2

$$$$
>  <molecular.string>
CCn1cc(C(=O)O)c(=O)c2cc(F)c(N3CCN(CCc4cccc5ccccc45)CC3)cc21

>  <result>
4-8

$$$$

* * *

Test system: VSE775
test.summary: MIC, microdilution broth method
Type: cell-based, Enterococcus faecalis
condition: VSE775; in µg/mL

>  <compound>
CCn1cc(C(=O)O)c(=O)c2cc(F)c(N3CCN(Cc4cc(C)cc(C)c4)CC3)cc21

>  <reported.relation>
=

>  <MIC>
8

$$$$
>  <compound>
O=C(O)c1cn(C2CC2)c2cc(N3CCNCC3)c(F)cc2c1=O [Ciprofloxacin, ciprofloxacin, reference compound]

>  <reported.relation>
=

>  <MIC>
1

$$$$
>  <compound>
CCn1cc(C(=O)O)c(=O)c2cc(F)c(N3CCN(Cc4ccc(-c5ccccc5)cc4)CC3)cc21

>  <reported.relation>
=

>  <MIC>
2

$$$$
>  <compound>
CCn1cc(C(=O)O)c(=O)c2cc(F)c(N3CCN(Cc4cc(=O)[nH]c5ccccc45)CC3)cc21

>  <reported.relation>
>

>  <MIC>
32

$$$$
>  <compound>
O=C(O)c1cn(C2CC2)c2cc(N3CCN(Cc4ccc(-c5ccccc5)cc4)CC3)c(F)cc2c1=O

>  <reported.relation>
=

>  <MIC>
2

$$$$
>  <compound>
COC(=O)c1cnc(N2CCN(c3c(F)cc4c(=O)c(C(=O)O)cn5c4c3OC[C@@H]5C)CC2)nc1

>  <reported.relation>
=

>  <MIC>
4

$$$$
>  <compound>
O=C(O)c1cn(C2CC2)c2cc(N3CCN(Cc4cccc5c4OCO5)CC3)c(F)cc2c1=O

>  <reported.relation>
=

>  <MIC>
2

$$$$
>  <compound>
CCn1cc(C(=O)O)c(=O)c2cc(F)c(N3CCN(Cc4ccc(-n5cncn5)cc4)CC3)cc21

>  <reported.relation>
=

>  <MIC>
8

$$$$
>  <compound>
CCn1cc(C(=O)O)c(=O)c2cc(F)c(N3CCN(Cc4cccc5ccccc45)CC3)cc21

>  <reported.relation>
=

>  <MIC>
2

$$$$
>  <compound>
CCn1cc(C(=O)O)c(=O)c2cc(F)c(N3CCN(Cc4cccc5cccnc45)CC3)cc21

>  <reported.relation>
=

>  <MIC>
16

$$$$

Cited source for all entries: patent US11746116B2
